Reported AUC25 values for the following compounds.
# Test system: Mycobacterium tuberculosis Erdman (autoluminescent)
# MEASUREMENT DESCRIPTION: AUC25, normalised area under dose response up to IC25 (three-drug combination) (fraction (0-1)); higher = more potent at low dose
# PROTOCOL CONDITIONS: in vitro model: butyrate; time point: terminal (~4-5 doublings, model-specific)
Lab note: write the figure by itself, no unit.

COMPOUND: CC(C)/N=c1\cc2n(-c3ccc(Cl)cc3)c3ccccc3nc-2cc1Nc1ccc(Cl)cc1 [clofazimine] + COc1c(N2C[C@@H]3CCCN[C@@H]3C2)c(F)cc2c(=O)c(C(=O)O)cn(C3CC3)c12 [moxifloxacin] + O=[N+]([O-])c1cn2c(n1)OC[C@@H](OCc1ccc(OC(F)(F)F)cc1)C2 [pretomanid]
AUC25: 0.101

Exercise: Return AUC25 (reported value) for this compound: CC(=O)NC[C@H]1CN(c2ccc(N3CCOCC3)c(F)c2)C(=O)O1 [linezolid] + COc1c(N2C[C@@H]3CCCN[C@@H]3C2)c(F)cc2c(=O)c(C(=O)O)cn(C3CC3)c12 [moxifloxacin] + CO[C@H]1/C=C/O[C@@]2(C)Oc3c(C)c(O)c4c(O)c(c(/C=N/N5CCN(C)CC5)c(O)c4c3C2=O)NC(=O)/C(C)=C\C=C\[C@H](C)[C@H](O)[C@@H](C)[C@@H](O)[C@@H](C)[C@H](OC(C)=O)[C@@H]1C [rifampicin]
Solution: 0.0684

Exercise: Look up and report measured AUC25 for this entry: CC(=O)NC[C@H]1CN(c2ccc(N3CCOCC3)c(F)c2)C(=O)O1 [linezolid] + NC(=O)c1cnccn1 [pyrazinamide] + CO[C@H]1/C=C/O[C@@]2(C)Oc3c(C)c(O)c4c(O)c(c(/C=N/N5CCN(C6CCCC6)CC5)c(O)c4c3C2=O)NC(=O)/C(C)=C\C=C\[C@H](C)[C@H](O)[C@@H](C)[C@@H](O)[C@@H](C)[C@H](OC(C)=O)[C@@H]1C [rifapentine]
Solution: 0.0673

Exercise: Return reported AUC25. Input compound: NNC(=O)c1ccncc1 [isoniazid] + COc1c(N2C[C@@H]3CCCN[C@@H]3C2)c(F)cc2c(=O)c(C(=O)O)cn(C3CC3)c12 [moxifloxacin] + CO[C@H]1/C=C/O[C@@]2(C)Oc3c(C)c(O)c4c(O)c(c(/C=N/N5CCN(C6CCCC6)CC5)c(O)c4c3C2=O)NC(=O)/C(C)=C\C=C\[C@H](C)[C@H](O)[C@@H](C)[C@@H](O)[C@@H](C)[C@H](OC(C)=O)[C@@H]1C [rifapentine]
Solution: 0.0584

Exercise: Please look at this compound and report its AUC25: CC[C@@H](CO)NCCN[C@@H](CC)CO [ethambutol] + CC(=O)NC[C@H]1CN(c2ccc(N3CCOCC3)c(F)c2)C(=O)O1 [linezolid] + CO[C@H]1/C=C/O[C@@]2(C)Oc3c(C)c(O)c4c(O)c(c(/C=N/N5CCN(C6CCCC6)CC5)c(O)c4c3C2=O)NC(=O)/C(C)=C\C=C\[C@H](C)[C@H](O)[C@@H](C)[C@@H](O)[C@@H](C)[C@H](OC(C)=O)[C@@H]1C [rifapentine]
Solution: 0.0436
